Tested on: KM12 colon
assay remarks: NCI-60 one-dose screen, 48 h (100 = growth as untreated, 0 = no growth, -100 = all killed)
recorded conditions: 10 µM unless noted
Procedure: Growth inhibition of the KM12 human tumor cell line is measured as a screen for anti-cancer activity. Cells are grown in 96 well plates and exposed to the test compound for 48 hours. Compounds are tested at a single concentration, which is 10^-5 M for most compounds. The reported endpoint is percent growth (GI% or GIPRCNT), where numbers from 0 - 100% represent growth inhibition, and numbers from -100% - 0 represent cell death. For example, a value of 40 represents 60% growth inhibition. […]
This is part of a sample that, as a whole, favours compounds with a hit. Of some 83,000 tested, about 20% had one in any assay.
property measured: growth (%)

mol_smiles=Cc1cc(N/C=c2\sc3ncnn3c2=O)no1 observed_value=84.3
mol_smiles=COc1ccc(C(=O)c2cc(OC)c(OC)c(OC)c2)cc1/C=C/C(=O)c1ccc(O)cc1 observed_value=2.74
mol_smiles=Cn1c(=O)c2c(nc3n2CCN(CCc2ccc(OCCN4CCOCC4)cc2)C3)n(C)c1=O observed_value=103
mol_smiles=Nc1nc(Cl)c2c(ncn2Cc2ccc(CCl)cc2)n1 observed_value=94.3
mol_smiles=O=S(=O)(NCCCNc1cc(-c2cn(-c3ccccc3)nc2-c2cccc(O)c2)ccn1)c1cccc2ccccc12 observed_value=25.5

* * *

System: RPMI-8226 leukemia
assay remarks: NCI-60 one-dose screen, 48 h
recorded conditions: 10 µM unless noted
This is part of a sample that, as a whole, favours compounds with a hit. Of some 83,000 tested, about 20% had one in any assay. Active and inactive are the calls of the source. The calls were made as follows: active = growth percent below 10; inactive = the rest.
Outcomes: active, inactive

compound=C=C1C(=O)O[C@H]2[C@H]1CC/C(COC(=O)NCc1cc(OC)cc(OC)c1)=C\CC[C@@]1(C)O[C@@H]21 system="RPMI-8226 leukemia" answer_label=active
compound=O=C(O)c1cn(C2CC2)c2cc(N3CCN(S(=O)(=O)c4ccc(Cl)c(Cl)c4)CC3)c(F)cc2c1=O system="RPMI-8226 leukemia" answer_label=active
compound=COc1cc(Cn2c(SCCC(=O)Nc3ccc(F)cc3)nc3ccccc3c2=O)cc(OC)c1OC system="RPMI-8226 leukemia" answer_label=inactive
compound="CCN1C(=O)/C(=c2\\sc3n(c2=O)C2C(NN=3)N(CC)C(=S)N2CC)c2ccccc21 (centres undefined)" system="RPMI-8226 leukemia" answer_label=inactive
compound="C#CCN1C(=O)/C(=c2\\sc3n(c2=O)C2C(NN=3)N(CC)C(=O)N2CC)c2ccccc21 (centres undefined)" system="RPMI-8226 leukemia" answer_label=inactive
compound=Nc1c(C(=O)Nc2ccccc2)sc2nc3c(cc12)CCCCC3 system="RPMI-8226 leukemia" answer_label=active
compound=Cc1cccc(NC(=O)c2sc3nc4c(cc3c2N)CCCC4)c1 system="RPMI-8226 leukemia" answer_label=inactive
compound="COc1ccc(C2CC(c3cccs3)=NN2c2ccc(S(=O)(=O)NC(=O)Nc3ccc(C)cc3)cc2)cc1 (centres undefined)" system="RPMI-8226 leukemia" answer_label=inactive
compound=O=S(=O)(NCCCNc1cc(-c2cn(-c3ccccc3)nc2-c2cccc(O)c2)ccn1)c1ccc(C(F)(F)F)cc1 system="RPMI-8226 leukemia" answer_label=inactive
compound=c1ccc([P+](CCC[P+](c2ccccc2)(c2ccccc2)c2ccccc2)(c2ccccc2)c2ccccc2)cc1 system="RPMI-8226 leukemia" answer_label=active
compound=COc1cccc(/C=C/C(=O)c2sc(Nc3ccc(O)cc3)nc2C)c1 system="RPMI-8226 leukemia" answer_label=active
compound=Cc1ccc(-c2csc3nc(C)c(CCCl)c(=O)n23)cc1 system="RPMI-8226 leukemia" answer_label=inactive
compound=COc1cccc(NC(=O)c2sc3nc4c(cc3c2N)CCCC4)c1 system="RPMI-8226 leukemia" answer_label=active
compound=O=Nc1c(-c2c(O)[nH]c3ccc([N+](=O)[O-])cc23)[nH]c2ccc(O)cc12 system="RPMI-8226 leukemia" answer_label=active
compound=O=C1CCCCN1CCCCC#Cc1ccccc1C#Cc1ccc([N+](=O)[O-])cc1 system="RPMI-8226 leukemia" answer_label=active
compound=COc1ccc(C(=O)c2cc(OC)c(OC)c(OC)c2)cc1/C=C/C(=O)c1ccc(O)cc1 system="RPMI-8226 leukemia" answer_label=active
compound=C=CCc1cc(Cl)cc2c(OC(C)=O)c(C(C)=O)c(-c3ccccc3)nc12 system="RPMI-8226 leukemia" answer_label=inactive
compound=O=C(Nc1ccc(I)cc1)c1cccc([N+](=O)[O-])c1O system="RPMI-8226 leukemia" answer_label=active
compound=Cc1ccc2nc(-c3c(CCCO)noc3N)[nH]c(=O)c2c1 system="RPMI-8226 leukemia" answer_label=inactive
